Target: PDE 4 enzyme
Assay: PDE 4 enzyme inhibition (Scintillation Proximity Assay, enzyme purified from human polymorphonuclear leukocytes)
Settings: PDE 4 from human PMNs; SPA, [3H]cAMP, 40 minutes at 30° C.; read-out: IC50 (concentration required to inhibit cyclic nucleotide hydrolysis by 50%)
Protocol: Human polymorphonuclear leukocyte isolation The polymorphonuclear leukocytes (PMNs) were isolated from peripheral blood of healthy volunteers according to Boyum A. (Scand. J. Immunol., 1976, 5th suppl., 9). […] The enzyme activity was evaluated with a Scintillation Proximity Assay (SPA) kit (Amersham). […] SPA beads (50 μl) containing 18 mM zinc sulphate were added to stop the reaction and after 20 minutes at room temperature the radioactivity was measured using a scintillation counter. […]
measured.property: IC50
Answer format: value, then unit.

Fill in reported IC50 for this entry: CS(=O)(=O)N1Cc2c(ccc(OC(F)F)c2OC2CCCO2)C(Cc2c(Cl)cncc2Cl)=N1 (stereo not shown)
8 nM
